Biological target: IL16_1, Q14005
Sequence (Q14005 210-306): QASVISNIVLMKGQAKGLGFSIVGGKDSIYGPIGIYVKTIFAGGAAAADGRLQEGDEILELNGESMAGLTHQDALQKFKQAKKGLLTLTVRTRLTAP
Assay: holdup assay
Set-up: key: below the threshold = too weak to quantify, mostly under pKd 3.1 to 4
Details: plain residues with an end cap or a label only (N-terminal biotin on a linker: ado-ado)
READOUT LABEL: pKd

# BINDER, READOUT LABEL, MEASUREMENT
data = [
    ("DPAESMESLV [PTPRG, P23470]", "pKd", 4.53),
    ("EIPAQSPTCV [FZD10, Q9ULW2]", "pKd", 3.79),
]
